FYI, the data here is from ChEMBL document CHEMBL3046196.

Test system: Aspergillus niger
Assay: Antimicrobial activity against Aspergillus niger MTCC 282
Format: functional
observed property: MIC99 (µg/mL)
Entry rule: numbers only, all in µg/mL.

Cc1ccc(C)c(-n2c(-c3ccccc3Cl)nc3ccc(CCn4c(-c5ccccc5Cl)nc5ccccc5c4=O)cc3c2=O)c1 ... 500

# input So what's the measured MIC99 for this one? COc1ccc(-n2c(-c3ccccc3Cl)nc3ccc(CCn4c(-c5ccccc5Cl)nc5ccccc5c4=O)cc3c2=O)c([N+](=O)[O-])c1
# output 500

# input # iterate: O=c1c2ccccc2nc(-c2ccccc2Cl)n1CCc1ccc2nc(-c3ccccc3Cl)n(-c3c(Cl)cc([N+](=O)[O-])cc3Cl)c(=O)c2c1
# output 100

# input Same question for Cc1ccc(-n2c(-c3ccccc3Cl)nc3ccc(CCn4c(-c5ccccc5Cl)nc5ccccc5c4=O)cc3c2=O)c([N+](=O)[O-])c1 please.
# output 1000

# input Input O=c1c2ccccc2nc(-c2ccccc2Cl)n1CCc1ccc2nc(-c3ccccc3Cl)n(-c3ccc([N+](=O)[O-])cc3)c(=O)c2c1
# output 500

# input Moving on to Cc1ccc(-n2c(-c3ccccc3Cl)nc3ccc(CCn4c(-c5ccccc5Cl)nc5ccccc5c4=O)cc3c2=O)c(C)c1
# output 500

# input What do we get for O=c1c2ccccc2nc(-c2ccccc2Cl)n1CCc1ccc2nc(-c3ccccc3Cl)n(-c3ccccc3Cl)c(=O)c2c1 ?
# output 100
